# System: CCRF-CEM leukemia
# Experimental Protocol: NCI tumour cell line growth inhibition, 48 h; in the data active = GI50 below about 0.43 µM; inactive = the rest
Valid outcomes are listed here; reply with one: label 1 (active), label 0 (inactive)

COc1ccc(CNCCN2C(=O)c3ccc4c5c(ccc(c35)C2=O)C(=O)N(CCNCc2ccc(OC)c(OC)c2OC)C4=O)c(OC)c1OC; label 1
Cn1cc(-c2nc(-c3c[nH]c4ccccc34)cs2)c2cccnc21; label 1
Cc1cccc(Nc2ncc(-c3ccccc3)o2)c1; label 0
CC(=O)OCc1cc[c]([Hg][Cl])o1; label 0

Problem: Any idea what this test logged for O=C(Nc1cccc(Cl)c1)Nc1cc(C(F)(F)F)ccc1Cl ?
Solution: label 0

Problem: What outcome does the record of this test show for [N-]=[N+]=NCCCn1c2c(c3ccccc3c1=O)C(=O)c1cc3c(cc1-2)OCO3 ?
Solution: label 0

Problem: What call does the record list for COc1cc(N2CCN(C(C)C)CC2)ccc1Nc1nc(Nc2ccc(F)cc2C(N)=O)c2cc[nH]c2n1 ?
Solution: label 1
